Molecular target: μ-opioid receptor (Rattus norvegicus, UniProt P33535)
Sequence (P33535 whole entry): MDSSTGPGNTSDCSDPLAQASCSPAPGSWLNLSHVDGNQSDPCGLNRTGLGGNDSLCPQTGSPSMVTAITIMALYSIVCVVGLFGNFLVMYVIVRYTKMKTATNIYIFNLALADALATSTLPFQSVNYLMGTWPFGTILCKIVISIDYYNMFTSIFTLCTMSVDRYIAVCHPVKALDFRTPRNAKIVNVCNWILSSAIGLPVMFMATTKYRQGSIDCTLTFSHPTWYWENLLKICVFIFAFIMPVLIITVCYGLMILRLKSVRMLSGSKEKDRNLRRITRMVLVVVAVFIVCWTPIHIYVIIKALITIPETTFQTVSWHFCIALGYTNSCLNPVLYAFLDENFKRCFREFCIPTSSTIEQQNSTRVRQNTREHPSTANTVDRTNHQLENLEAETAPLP
Assay: [3H]-DAMGO radioligand binding assay
Conditions: read-out: μ-opioid Binding inhibition (%) [300 μM]
inhibition at 300 µM for assorted molecules

{"columns": ["MOLECULE SMILES", "inhibition at 300 µM"],
 "data": [
  ["Cc1cc(O)c(C(=O)/C=C/c2ccccc2)cc1C", "60 to 90%"],
  ["COc1cc(C(=O)/C=C/c2ccccc2)ccc1O", "40 to 60%"],
  ["O=C(/C=C/c1ccccc1)c1cc(Br)cc(Br)c1O", "60 to 90%"],
  ["O=C(/C=C/c1ccccc1)c1ccccc1", "60 to 90%"],
  ["O=C(/C=C/c1cccc(Cl)c1)c1ccccc1", "20 to 40%"]
]}

## Task Any idea what its inhibition at 300 µM is? The molecule is O=C(/C=C/c1ccccc1)c1cc(Br)ccc1O
## Result 20 to 40%

## Task Any idea what its inhibition at 300 µM is? The molecule is Nc1ccc(C(=O)/C=C/c2cccc([N+](=O)[O-])c2)cc1
## Result 40 to 60%

## Task Any idea what its inhibition at 300 µM is? The molecule is Cc1cc(C(=O)/C=C/c2ccccc2)c(O)c([N+](=O)[O-])c1
## Result > 90%

## Task Any idea what its inhibition at 300 µM is? The molecule is CN(C)c1ccc(/C=C/C(=O)c2ccccc2)cc1
## Result 60 to 90%

## Task Any idea what its inhibition at 300 µM is? The molecule is Cc1ccc(C(=O)/C=C/c2ccccc2)cc1
## Result 20 to 40%

###

viability at 48 h, 20 µM for assorted molecules
Assay: Cell viability assay
Type: cell-based, human
Conditions: human, SH-SY5Y cells
Quick reminder: number only, in %, skip the unit.

For orientation, consider the following solved cases.
{"columns": ["MOLECULE SMILES", "REPORTED RESULT"],
 "data": [
  ["O=C(/C=C/c1ccccc1)c1ccccc1", 95.9],
  ["Cc1cc(C(=O)/C=C/c2ccccc2)c(O)c([N+](=O)[O-])c1", 74.8]
]}

Turning to the following molecule.
## Task Any idea what its viability at 48 h, 20 µM is? The molecule is Cc1ccc(O)c(C(=O)/C=C/c2ccccc2)c1
## Result 88.5

###

Biological target: UniProt:P33535
Test: [3H]-DAMGO radioligand binding assay
Conditions: read-out: μ-opioid Binding inhibition (%) [300 μM]
inhibition at 300 µM for assorted molecules

{"columns": ["MOLECULE SMILES", "inhibition at 300 µM"],
 "data": [
  ["Nc1ccc(C(=O)/C=C/c2ccccc2)cc1", "60 to 90%"],
  ["O=C(/C=C/c1ccc([N+](=O)[O-])cc1)c1ccccc1", "20 to 40%"],
  ["Cc1ccc(O)c(C(=O)/C=C/c2ccccc2)c1", "60 to 90%"],
  ["O=C(/C=C/c1ccc(Cl)cc1)c1ccccc1", "20 to 40%"],
  ["O=C(/C=C/c1ccccc1)c1cc(Cl)ccc1O", "60 to 90%"],
  ["COc1ccc(C(=O)/C=C/c2ccccc2)c(O)c1", "20 to 40%"]
]}

## Task Any idea what its inhibition at 300 µM is? The molecule is O=C(/C=C/c1ccccc1)c1ccccc1O
## Result 20 to 40%
